Origin of measurements: patent US10604535B2

# System: FADD-deficient Jurkat cells
# test method notes: Cellular necroptosis assay (human TNFα-induced necrosis, CellTiter-Glo)
# Assay type: cell-based
# test settings: Homo sapiens, Jurkat, 48 h, read-out: Cell IC50
observable: IC50

mol | IC50
CN1C(=O)[C@@H](NC(=O)c2cc(F)n(Cc3ccccc3)n2)COc2cccnc21 | 0.1 to 1000 nM

Lab note: next compound to report on.
Given the compound CN1C(=O)[C@@H](NC(=O)c2cc(C#N)n(Cc3ccccc3)n2)COc2cccnc21 , write its reported IC50.
0.1 to 1000 nM

----------
# System: human cryopreserved hepatocytes
# test method notes: Metabolic stability (hepatocytes)
# test settings: human cryopreserved hepatocytes
Below is a list of entries, each paired with its recorded Human hepatocyte CLhep Avg value.
Number only, in mL/min/kg; omit the unit.

Below are worked cases with known answers.
molecule | target or test system | units text | Human hepatocyte CLhep Avg
[2H]C([2H])([2H])N1C(=O)[C@@H](NC(=O)c2nn(Cc3ccccc3)cc2F)[C@@H](C)Oc2ncccc21 [Example 205] | human cryopreserved hepatocytes | mL/min/kg | 11
CN1C(=O)[C@@H](NC(=O)c2nnc(Cc3ccccc3)o2)CCc2cccnc21 [Example 148A] | human cryopreserved hepatocytes | mL/min/kg | 12
C[C@H]1Oc2cccnc2N(C)C(=O)[C@H]1NC(=O)c1ncn(Cc2cccc(C#N)c2)n1 [Example 172] | human cryopreserved hepatocytes | mL/min/kg | 5.3
CN1C(=O)[C@@H](NC(=O)c2cc(C3(c4ccccc4)CC3)on2)COc2cccnc21 [Example 77] | human cryopreserved hepatocytes | mL/min/kg | 19
C[C@H]1Oc2cccnc2N(C)C(=O)[C@H]1NC(=O)c1nnc(Cc2ccccc2)[nH]1 [Example 94] | human cryopreserved hepatocytes | mL/min/kg | 4.9

Given the molecule C[C@H]1Oc2cccnc2N(C)C(=O)[C@H]1NC(=O)c1nnc(Cc2ccccc2)o1 [Example 134] , write its reported Human hepatocyte CLhep Avg.
9.0

Given the molecule CN1C(=O)[C@@H](NC(=O)c2cc(Cc3ccccc3)on2)[C@H]2C[C@H]2c2nccnc21 [Example 197] , write its reported Human hepatocyte CLhep Avg.
13

Given the molecule CN1C(=O)[C@@H](NC(=O)c2nnc(Cc3ccccc3)s2)[C@H]2C[C@H]2c2nccnc21 [Example 198] , write its reported Human hepatocyte CLhep Avg.
8.5

Given the molecule CN1C(=O)[C@@H](NC(=O)c2cc(Cc3ccccc3)on2)COc2cccnc21 [Example 142] , write its reported Human hepatocyte CLhep Avg.
16

Given the molecule CN1C(=O)[C@@H](NC(=O)c2nnc(Cc3ccccc3)[nH]2)[C@H]2C[C@H]2c2nccnc21 [Example 119B] , write its reported Human hepatocyte CLhep Avg.
0

Given the molecule CN1C(=O)[C@@H](NC(=O)c2nnc(Cc3cccc(C#N)c3)[nH]2)COc2cccnc21 [Example 161] , write its reported Human hepatocyte CLhep Avg.
0

Given the molecule CN1C(=O)[C@@H](NC(=O)c2nnc(Cc3ccccc3)[nH]2)COc2cccnc21 [Example 42] , write its reported Human hepatocyte CLhep Avg.
0.8

Given the molecule CN1C(=O)[C@@H](NC(=O)c2nnc(Cc3ccccc3)o2)[C@H]2C[C@H]2c2nccnc21 [Example 177A] , write its reported Human hepatocyte CLhep Avg.
4.2

Given the molecule O=C(N[C@@H]1C(=O)Nc2c(F)cc(F)cc2[C@@H]2C[C@H]12)c1nnc(Cc2ccccc2)[nH]1 [Example 83A] , write its reported Human hepatocyte CLhep Avg.
1.0

Given the molecule CN1C(=O)[C@@H](NC(=O)c2nnc(Cc3cccc(C#N)c3)[nH]2)COc2ccccc21 [Example 163] , write its reported Human hepatocyte CLhep Avg.
0

Given the molecule CN1C(=O)[C@@H](NC(=O)c2nnc(Cc3ccccc3)[nH]2)[C@H]2C[C@H]2c2ccccc21 [Example 46A] , write its reported Human hepatocyte CLhep Avg.
16

Given the molecule CN1C(=O)[C@@H](NC(=O)c2nnc(Cc3ccccc3)o2)COc2cccnc21 [Example 146] , write its reported Human hepatocyte CLhep Avg.
4.2

Given the molecule CN1C(=O)[C@@H](NC(=O)c2nnc(Cc3ccccc3)[nH]2)COc2ccccc21 [A, reference compound] , write its reported Human hepatocyte CLhep Avg.
6.8

Given the molecule CN1C(=O)[C@@H](NC(=O)c2nnc(C3(c4ccccc4)CC3)o2)COc2cccnc21 [Example 66] , write its reported Human hepatocyte CLhep Avg.
6.3

Given the molecule CN1C(=O)[C@@H](NC(=O)c2nnc(Cc3ccccc3)o2)COc2ccccc21 [B, reference compound] , write its reported Human hepatocyte CLhep Avg.
14

Given the molecule CN1C(=O)[C@@H](NC(=O)c2nnc(Cc3ccccc3)[nH]2)[C@H]2C[C@H]2c2cccnc21 [Example 75A] , write its reported Human hepatocyte CLhep Avg.
9.1
